System: SNB-75
experimental details: NCI tumour cell line growth inhibition, 48 h
Active and inactive are the calls of the source. No stated cut-off is given here; in the data, active = GI50 up to about 1.1 µM and inactive = higher.
Assignment: determine reported GI50 for the given molecules.

GI50 measured on `COc1ccc(-c2nnc(-c3ccncc3)o2)cc1` = > 100 µM (inactive)

Consider COc1cc2c(cc1OC)C(C1(O)CCCCC1)NCC2 (stereo unspecified) . Its measured GI50 is > 100 µM (inactive)

Per the records, this molecule ( `Cc1cc2c(=O)cc(-c3ccncc3)oc2c(C(=O)O)c1C` ) has GI50 equal to > 100 µM (inactive)

Input `CC(=O)n1c(=O)c2cc3c(=O)n(-c4cccc(C#N)c4)c(=O)c3cc2c1=O` . Output GI50: 23.7 µM (inactive)

Just so you know, measured GI50 for CCOC(=O)C1CCC(=O)N1C(=O)c1ccc(Cl)cc1 (stereo unspecified) came out at > 100 µM (inactive)

According to the records, this molecule `NCCc1ccc(S(=O)(=O)O)cc1[N+](=O)[O-]` displays GI50 of > 100 µM (inactive)

* * *

System: OVCAR-5
experimental details: NCI tumour cell line growth inhibition, 48 h
Activity calls are given as the source filed them. No stated cut-off is given here; in the data, active = GI50 up to about 1.1 µM and inactive = higher.
quantity kind: GI50

Given item `Cc1n2nc(N)sc2n[n+]1CC(=O)c1ccccc1` , the value recorded as its GI50 is > 100 µM (inactive)

Consider `COc1cc(OC)cc(C(=O)NC2=C(Cl)C(=O)c3ccccc3C2=O)c1` . Its measured GI50 is 4.92 µM (inactive)

GI50 recorded for this compound, `O=C(O)C(Oc1nc(S)nc(S)n1)(c1ccc(Cl)cc1)c1ccc(Cl)cc1` , is > 100 µM (inactive)

Lab note: measured GI50 of `O=[N+]([O-])c1ccc(-c2ccc(C3=Nn4c(CNc5ccccc5Cl)nnc4SC3)o2)cc1` was > 100 µM (inactive)

Looking up `CCSc1nnc(Sc2c3ccccc3nc3ccccc23)s1` , I see its GI50 listed as 20 µM (inactive)

Query `Cc1cc2cc3ccccc3cc2c(=O)[nH]1` yields GI50 of > 10 µM (inactive)

Entry `COc1cc(N(CCC#N)CCC#N)ccc1C(=N/NC(=O)c1cc(Br)ccc1O)/N=N/c1ccc(C)cc1` — recorded GI50 = 61.4 µM (inactive)

Query `CSc1nc(N)c2c(-c3ccccc3)c3c(nc2n1)CCCC3` yields GI50 of > 100 µM (inactive)

* * *

Please provide measured GI50 for the entries that follow.
System: HOP-62
experimental details: NCI tumour cell line growth inhibition, 48 h
Activity calls are given as the source filed them. Cut-off read from the data, not from the text of the source: active = GI50 up to about 1.1 µM and inactive = higher.

Note to self: GI50 recorded for `O=C1c2ccccc2N1C(=O)c1ccccc1[N+](=O)[O-]` was 45.4 µM (inactive)

GET /value?item= `CC1=C(C(=O)Nc2ccccc2)C(c2ccc(N(C)C)cc2)C(C(=O)Nc2ccccc2)=C(C)N1` &field=GI50 returns 5 µM (inactive)

GI50 reported for this compound Cc1cc(Br)ccc1/N=N/C1C(=O)ON=C1c1ccccc1 (configuration not stated) : > 100 µM (inactive)

Entry COc1cc2c(cc1Oc1ccc(OC)c3c1CC1c4c(cc(OC)c(OC)c4-3)CCN1C)CC1c3c(cc(OC)c(OC)c3-2)CCN1C (configuration not stated) ; GI50 = 17.1 µM (inactive)

Looking up `Clc1ccc(Nc2nnc(CNc3ccc(-c4nnc(Nc5ccc(Cl)cc5)s4)cc3)s2)cc1` , I found its GI50 recorded as 30.4 µM (inactive)

Recorded GI50 (compound `[O-][S+](c1ccc(O)cc1)c1ccc(O)cc1` ): > 100 µM (inactive)

get_value(item= `Cc1ccc(NC(=S)C#N)cc1Cl` , readout=GI50) returns 49.1 µM (inactive)

# compound `CC(C)(C)c1cc2c(c(C(C)(C)C)c1O)CC(=O)O2` ; its GI50 = 30.3 µM (inactive)

Sample `NC(=O)CC[C@H]1C(=O)N=C(N)N1C(=O)OCc1ccccc1` ; GI50 observed: > 100 µM (inactive)

GI50 measured on `O=C1OC(c2ccc(O)c(F)c2)(c2ccc(O)c(F)c2)c2cccc3cccc1c23` = > 25 µM (inactive)

// sample `CN1CCN(CCn2c3c4ccccc4ccc3c3oc(=O)c4ccccc4c32)CC1` , its GI50 was 2.07 µM (inactive)

The compound identified as `Cn1c(O)c(C(=O)Nc2cccs2)c(=O)[nH]c1=S` registered its GI50 at 17.4 µM (inactive)

For this compound ( O=C(CN1CCN(c2ccccc2)CC1)N1CCc2c([nH]c3ccccc23)C1c1cccnc1 (configuration not stated) ), measured GI50 is 34.1 µM (inactive)

The recorded GI50 for entry `CC(=O)c1ccc(Nc2nc3ccccc3c3occc23)cc1` equals 12.4 µM (inactive)

Form field GI50, entry `N#CC(C#N)=C(N)/C(C#N)=C\c1ccnc2ccccc12` : 23.9 µM (inactive)

// GI50 lookup, compound = `NCCc1ccc(S(=O)(=O)O)cc1[N+](=O)[O-]` , result: > 100 µM (inactive)

Please fill in: GI50 reported for `COc1cc(OC)cc(C(=O)NC2=C(Cl)C(=O)c3ccccc3C2=O)c1` = 12.8 µM (inactive)

Please fill in: GI50 reported for `CCC[C@H](C)C[C@H](C)C[C@H](C)/C=C(\C)[C@@H](O)[C@@H](C)C(=O)CC` = 20.4 µM (inactive)

GI50 recorded for this compound, `Cc1cccc(C(C)C)c1NC(=O)CCl` , is 41.9 µM (inactive)

Sample `CSC(=N)N1N=C2c3ccccc3CC[C@@H]2[C@@H]1c1ccccc1` ; GI50 observed: 15.7 µM (inactive)

Record `CCCCCCCCCCSS(=O)(=O)c1ccc(C)cc1` , field GI50: 19.9 µM (inactive)

Item: Cc1cccc(C)c1NC(=O)CCCC(=O)C(C#N)c1ccc(Cl)cc1 (configuration not stated) | GI50: > 100 µM (inactive)

Looking up `CC1=C(C2=C(C)C(=O)C(=O)c3cc(C)ccc32)c2ccc(C)cc2C(=O)C1=O` , I found its GI50 recorded as 0.451 µM (active)

GI50 reading for `COC(=O)/C=C(/C)n1nc2ccccc2n1` : > 100 µM (inactive)

For reference, reported GI50 for `O=C(OCc1ccccc1CN1CCOCC1)c1cccc(Br)c1` stands at 53.2 µM (inactive)

So, CCOC(=O)C(C(=O)OCC)C1C=CCC2c3ccccc3COCC21 (configuration not stated) ? Its GI50 was > 100 µM (inactive)

`Cc1sc2nc3n(c(=O)c2c1C)N=CN(c1ccccc1)C3` has a reported GI50 of 20.4 µM (inactive)

For CCOC(=O)C1=C(C)N(Cc2ccccc2)C2(O)C=CC(O)=C3C(=O)c4ccccc4C(=O)C312 (configuration not stated) the compound record lists GI50 as 14.2 µM (inactive)

get_value(item= CN1C(=O)C(CC=O)(C(C)(C)C)c2ccccc21 (configuration not stated) , readout=GI50) returns > 100 µM (inactive)

Lab book: GI50 of `COc1cc2c(cc1OC)C(=O)N(c1ccc(OCCN3CCCC3)cc1)C2=O` noted as > 100 µM (inactive)

// sample `N#CCCOCN(CO)c1nc(N(CO)COCCC#N)nc(N(CO)COCCC#N)n1` , its GI50 was > 100 µM (inactive)

The reported GI50 of the compound `Oc1cccc2c1NC1=C(CCC/C1=C\c1ccccc1)C2` was > 100 µM (inactive)

* * *

So I've got a bunch of compounds here, and I need their GI50 values.
Test system: RXF 393
experimental details: NCI tumour cell line growth inhibition, 48 h
Calls of active or inactive are those of the source. Rule as the data show it: active = GI50 up to about 1.1 µM and inactive = higher.

Reported GI50 ( CC1OC(OCC2COC(O)(Oc3c(-c4ccc(O)c(O)c4)oc4cc(O)cc(O)c4c3=O)C(O)C2O)C(O)C(O)C1O (configuration not stated) ) = > 100 µM (inactive)

For `CCc1ccccc1NC(=O)C1=C(C)NC(C)=C(C(=O)Nc2ccccc2CC)C1c1cccc([N+](=O)[O-])c1` the compound record lists GI50 as 10.5 µM (inactive)

Summary for this compound, `CC(=O)c1ccc(N2CCN(C3=CC(=O)c4c(O)ccc(O)c4C3=O)CC2)cc1` : GI50 is 47.8 µM (inactive)

GI50 recorded for this compound, `CCC(=O)C(C(=O)CC)c1c(OC(=O)c2ccccc2)ccc(O)c1C(=O)OC` , is > 100 µM (inactive)

Short answer for `O=C(N/C(=C/c1ccc(Cl)cc1Cl)c1nc2ccccc2s1)c1ccccc1` : GI50 was 31 µM (inactive)

Record summary for CC1OC(OC2C(OC(=O)[C@]34CCC(C)(C)C[C@H]3C3=CC[C@@H]5[C@@]6(C)CC[C@H](OC7OC(C(=O)O)C(O)C(O)C7O)C(C)(C)[C@@H]6CC[C@@]5(C)[C@]3(C)C[C@H]4O)OCC(O)C2O)C(O)C(OC2OCC(O)(CO)C2O)C1OC1OCC(O)C(O)C1O (some centres not stated) : reported GI50 = 15.2 µM (inactive)

Reported GI50 ( `O=C(OCc1ccccc1CN1CCOCC1)c1cccc(Br)c1` ) = 78.7 µM (inactive)

// GI50 lookup, compound = `CN(C)C(n1cc2c(c1)-c1ccc(Cl)cc1C(c1ccccc1F)=NC2)n1cc2c(c1)-c1ccc(Cl)cc1C(c1ccccc1F)=NC2` , result: 20.2 µM (inactive)

Value of GI50 reported for the compound CC1(OCc2ccccc2)C(=O)N2C1N(C(=O)OCc1ccccc1)CC2(C)C (configuration not stated) is 67.5 µM (inactive)

Quick note, GI50 for `Cc1ccc(NC(=O)/C(Cl)=C(/Cl)C(=O)O)cc1` landed at 31 µM (inactive)

Reported GI50 for `C=C(C)[C@@H](C(=O)OC)N1C(=O)c2ccccc2C1=O` was > 100 µM (inactive)

Record `C[C@]12CC[C@H]3[C@@H](CC=C4C[C@@H](O)CC[C@@]43C)[C@@H]1C/C(=C/c1ccccc1)[C@@H]2O` , field GI50: > 25.1 µM (inactive)
